Record form. Attribute: Kd. Fill in for each entry.
tested.target: T1, EsCas13d, nuclease-dead (Eubacterium siraeum, UniProt B0MS50, R295A;H300A;R849A;H854A)
T1 sequence: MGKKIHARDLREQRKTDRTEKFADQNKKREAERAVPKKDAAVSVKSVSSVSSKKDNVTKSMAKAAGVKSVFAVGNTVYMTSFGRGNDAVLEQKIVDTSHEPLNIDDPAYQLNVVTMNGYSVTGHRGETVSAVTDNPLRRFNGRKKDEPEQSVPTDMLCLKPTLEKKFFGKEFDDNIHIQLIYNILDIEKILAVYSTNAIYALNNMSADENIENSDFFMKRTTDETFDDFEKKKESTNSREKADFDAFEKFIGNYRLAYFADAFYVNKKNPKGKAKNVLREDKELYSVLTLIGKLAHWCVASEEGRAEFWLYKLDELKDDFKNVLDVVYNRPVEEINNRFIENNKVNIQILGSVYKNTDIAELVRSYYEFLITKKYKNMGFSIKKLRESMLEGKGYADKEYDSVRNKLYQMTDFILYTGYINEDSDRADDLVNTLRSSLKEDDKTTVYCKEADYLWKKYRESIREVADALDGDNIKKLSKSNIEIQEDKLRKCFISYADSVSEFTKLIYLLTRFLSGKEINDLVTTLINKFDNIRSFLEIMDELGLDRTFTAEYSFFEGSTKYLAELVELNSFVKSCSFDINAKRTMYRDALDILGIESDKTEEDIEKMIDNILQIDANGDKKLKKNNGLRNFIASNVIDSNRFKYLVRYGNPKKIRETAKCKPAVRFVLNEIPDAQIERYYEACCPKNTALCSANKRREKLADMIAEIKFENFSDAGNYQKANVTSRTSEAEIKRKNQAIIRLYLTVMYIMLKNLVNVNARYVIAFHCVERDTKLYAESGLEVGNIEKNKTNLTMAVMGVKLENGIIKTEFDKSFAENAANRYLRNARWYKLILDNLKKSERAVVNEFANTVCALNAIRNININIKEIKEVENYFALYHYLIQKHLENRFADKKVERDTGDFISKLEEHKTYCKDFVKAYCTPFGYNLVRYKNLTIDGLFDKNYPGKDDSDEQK
protocol.notes: crRNA (strand 1, pre-loaded); Mg2+; 40 mM Tris-HCl pH 7.5, 150 mM NaCl, 6 mM MgCl2, 1 mM DTT, 0.1% Tween-20, 0.2 mg/ml BSA; 25 C; 10 min per concentration, then washed
condition.set: tags: His6-TwinStrep-SUMO cleaved; N-terminal SNAP kept (SNAP-Surface 488); label: 3' end held by stalled T7 RNA polymerase
Give the value, in units of nM, as a plain number.

Recorded result, target 2 MT 5'PFS CUU 3'PFS ACG (mixed) RNA 1: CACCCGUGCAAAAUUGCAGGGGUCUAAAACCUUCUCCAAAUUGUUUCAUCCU RNA 2: GGGAAUGGAUCCACAUCUACGAAUUCCUUAGGAUGAAACAAUUUGGAGAAGACGAGAUCGGAAGAGCACACGU , Kd: 4.4

Recorded result, target 1 C2U,U8C (mixed) RNA 1: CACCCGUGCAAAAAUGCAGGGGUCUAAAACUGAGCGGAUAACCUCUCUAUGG RNA 2: GGGAAUGGAUCCACAUCUACGAAUUCGUACCAUAGAGAGGUUACCCGCUUACCGAGAUCGGAAGAGCACACGU , Kd: 10.1

Recorded result, target 1 C7G,A20C (mixed) RNA 1: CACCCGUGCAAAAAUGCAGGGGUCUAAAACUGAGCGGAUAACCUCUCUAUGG RNA 2: GGGAAUGGAUCCACAUCUACGAAUUCGUACCCUAGAGAGGUUAUGCGCUCACCGAGAUCGGAAGAGCACACGU , Kd: 86

Recorded result, target 3 U7G,U22C (mixed) RNA 1: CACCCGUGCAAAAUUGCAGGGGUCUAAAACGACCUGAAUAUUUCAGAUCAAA RNA 2: GGGAAUGGAUCCACAUCUACGAAUUCGUUCUUGAUCUGAAAUAUGCAGGUCUGCAGAUCGGAAGAGCACACGU , Kd: 65

These entries and their values trace back to paper PMC10786891.
